Field: IC50. Provide a value for each of the molecules that follow.
target: Human KIF18A (amino acid sequence 1-417) (Homo sapiens); test: Enzymatic activity test (ADP-Glo, microtubule-stimulated KIF18A ATPase); settings: 60 μg/mL microtubules, 25 μM ATP, 2.5 nM KIF18A protein, 120 min at ambient temperature, read-out: KIF18A_nM
# output: bare number, implied unit nM

Item: O=C(Nc1nc2c(c(N3CCC(F)(F)CC3)n1)COC2)c1ccc(NS(=O)(=O)CCO)cc1N1CCC2(CC1)CC2 | IC50: 29

For reference, reported IC50 for O=C(Nc1cc2cccnc2c(N2CCN(CC(F)(F)F)CC2)n1)c1ccc(NS(=O)(=O)CCO)cc1N1CCC2(CC1)CC2 stands at 1220

get_value(item= Nc1ncc2cc(NC(=O)c3ccc(NS(=O)(=O)CCO)cc3N3CCC4(CC3)CC4)cc(N3CCC(F)(F)CC3)c2n1 , readout=IC50) returns 40

Short answer for O=C(Nc1cc2cccnc2c(N2CCC(F)(F)CC2)c1F)c1cnc(NS(=O)(=O)CCO)cc1N1CCC2(CC1)CC2 : IC50 was 9

Just so you know, measured IC50 for O=C(Nc1cc(N2CCC(F)(F)CC2)c2ncccc2n1)c1ccc(NS(=O)(=O)CCO)cc1N1CCC2(CC1)CC2 came out at 2260

Documented IC50 of Cc1cc2cc(NC(=O)c3ccc(NS(=O)(=O)CCO)cc3N3CCC4(CC3)CC4)cc(N3CCC(F)(F)CC3)c2nc1N : 179

get_value(item= O=C(Nc1cc2ccccc2c(N2CCC(F)(F)CC2)n1)c1ccc(NS(=O)(=O)CCO)cc1N1CCC2(CC1)CC2 , readout=IC50) returns 250

---

Target: Human KIF18A (amino acid sequence 1-417) (Homo sapiens)
Sequence (Q8NI77 1-417): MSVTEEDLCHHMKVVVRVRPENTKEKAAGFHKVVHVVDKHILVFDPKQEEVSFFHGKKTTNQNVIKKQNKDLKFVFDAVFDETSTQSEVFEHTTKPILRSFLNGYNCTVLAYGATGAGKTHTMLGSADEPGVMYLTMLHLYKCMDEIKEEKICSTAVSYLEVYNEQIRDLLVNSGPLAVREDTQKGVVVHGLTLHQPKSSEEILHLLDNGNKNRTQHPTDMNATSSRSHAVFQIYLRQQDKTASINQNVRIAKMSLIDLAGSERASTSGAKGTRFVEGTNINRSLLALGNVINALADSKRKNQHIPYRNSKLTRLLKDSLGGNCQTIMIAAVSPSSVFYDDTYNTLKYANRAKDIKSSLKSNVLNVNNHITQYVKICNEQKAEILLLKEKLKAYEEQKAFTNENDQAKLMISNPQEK
Assay: Enzymatic activity test (ADP-Glo, microtubule-stimulated KIF18A ATPase)
Settings: 60 μg/mL microtubules, 25 μM ATP, 2.5 nM KIF18A protein, 120 min at ambient temperature, read-out: KIF18A_nM
Would you mind telling me the reported pIC50 of each entry?
In simple prose, pIC50 is minus the logarithm base ten of a concentration in moles per litre.

Lab note: O=C(Nc1nc(N2CCC(F)(F)CC2)nc2c1COC2)c1ccc(NS(=O)(=O)CCO)cc1N1CCC2(CC1)CC2 gave pIC50 of 6.60

Entry CC(CO)S(=O)(=O)Nc1ccc(C(=O)Nc2cc3sc(N)nc3c(N3CCC(F)(F)CC3)c2F)c(C2=CCC3(CC2)CC3)c1 (centres unmarked) , pIC50 reported as 6.86

The reported pIC50 of the molecule Cc1ncc2c(N3CCC(F)(F)CC3)nc(NC(=O)c3ccc(NS(=O)(=O)CCO)cc3N3CCC4(CC3)CC4)cn12 was 7.10

# pIC50 (molecule: O=C(Nc1cc2cc(O)nnc2c(N2CCC(F)(F)CC2)n1)c1ccc(NS(=O)(=O)CCO)cc1N1CCC2(CC1)CC2 ) is 7.82

// sample Nc1ccc2cc(NC(=O)c3ccc(NS(=O)(=O)CCO)cc3N3CCC4(CC3)CC4)c(F)c(N3CCC(F)(F)CC3)c2n1 , its pIC50 was 6.71

For reference, reported pIC50 for CN1Cc2nc(NC(=O)c3ccc(NS(=O)(=O)CCO)cc3N3CCC4(CC3)CC4)nc(N3CCC(F)(F)CC3)c2C1 stands at 6.55

Per the records, this molecule ( O=C(Nc1cc2ccc(O)nc2c(N2CCC(F)(F)CC2)n1)c1ccc(NS(=O)(=O)CCO)cc1N1CCC2(CC1)CC2 ) has pIC50 equal to 7.57

The recorded pIC50 for Nc1ccc2cc(NC(=O)c3ccc(NS(=O)(=O)CCO)cc3N3CCC4(CC3)CC4)nc(N3CCC(F)(F)CC3)c2n1 is 7.03

The reported pIC50 of the molecule O=C(Nc1cc2c(c(N3CCC(F)(F)CC3)n1)C(=O)NCC2)c1ccc(NS(=O)(=O)CCO)cc1N1CCC2(CC1)CC2 was 7.54

// recorded pIC50 for CC1OCc2c1cc(NC(=O)c1ccc(NS(=O)(=O)CCO)cc1N1CCC3(CC1)CC3)nc2N1CCC(F)(F)CC1 (centres unmarked) : 7.31

For record O=C(Nc1cc2cccnc2c(N2CCC(F)(F)CC2)n1)c1ccc(NS(=O)(=O)CCO)cc1N1CCC2(CC1)CC2 the listed pIC50 is 6.98

The recorded pIC50 for O=C(O)c1cnc2c(N3CCC(F)(F)CC3)cc(NC(=O)c3ccc(NS(=O)(=O)CCO)cc3N3CCC4(CC3)CC4)cc2c1 is 8.00
